Values were extracted from patent US20240067617A1.

Kindly supply the reported IC50 values for the records listed here.
molecular target: hLBAT (Homo sapiens, UniProt Q14973); construct: kept under Geneticin selection; experiment: LBAT (h/m) assay: 3H-taurocholic acid uptake in human LBAT-overexpressing cells; conditions: 0.3 μM 3H-taurocholic acid + 7.5 μM cold taurocholic acid, 20 minutes at 37° C.
Sequence (Q14973 whole entry): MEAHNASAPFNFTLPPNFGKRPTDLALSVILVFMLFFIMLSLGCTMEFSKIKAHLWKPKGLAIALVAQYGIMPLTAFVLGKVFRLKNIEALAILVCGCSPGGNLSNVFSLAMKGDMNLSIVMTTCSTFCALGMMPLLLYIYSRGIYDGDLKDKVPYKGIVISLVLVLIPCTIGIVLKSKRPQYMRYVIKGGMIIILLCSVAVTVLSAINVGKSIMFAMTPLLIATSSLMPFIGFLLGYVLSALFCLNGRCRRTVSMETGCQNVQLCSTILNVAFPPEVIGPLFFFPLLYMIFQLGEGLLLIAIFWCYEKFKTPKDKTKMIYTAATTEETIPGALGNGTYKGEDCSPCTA
Express the result in nM but write the number alone.

Any idea what IC50 was measured for CCCCC1(CC)CN(c2ccccc2)c2cc(SC)c(CSCC(=O)O)cc2S(=O)(=O)N1C (single isomer, unassigned) [21, enantiomer 2] ?
1900

How about `CCCCC1(CCCC)CN(c2ccccc2)c2cc(SC)c(CSC(C)(C)C(=O)O)cc2S(=O)(=O)N1C` ?
145

Same for CCCCC1CN(c2ccc(F)cc2)c2cc(OC)c(CSCC(=O)O)cc2S(=O)(=O)N1C (racemic) [Example 29]
107

And the next one, CCCCC1(C)CN(c2ccccc2)c2cc(SC)c(CSCC(=O)O)cc2S(=O)(=O)C1 (single isomer, unassigned) [5, enantiomer 1] ?
6000
